Measured values drawn from the supplement of paper PMC13386468 for this set.

# Target entity: UniProt Q8IE20
# Protocol notes: IC50 for competition of protein binding to Kinobeads;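 also: native unpurified kinases from lysate captured on beads bearing immobilized kinase inhibitors, with bead-bound kinases quantified by mass spectrometry across compound doses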
# Conditions used: assay detail: Kinobeads competition in P. falciparum blood-stage lysate
pIC50: −log10 of the molar value.
Assay readout: pIC50

Prompt: Record request: pIC50 value, item O=c1[nH]c2ccc(Cl)cc2c(NC2CN3CCC2CC3)c1-c1nc2ccccc2[nH]1 (stereo unspecified)
Response: < 4.70

====

# Target entity: UniProt Q7KQL8
# Sequence (Q7KQL8 whole entry): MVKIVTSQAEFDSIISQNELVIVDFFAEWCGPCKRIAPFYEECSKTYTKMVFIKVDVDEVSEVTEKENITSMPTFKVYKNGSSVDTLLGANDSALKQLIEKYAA
# Protocol notes: IC50 for competition of protein binding to Kinobeads
# Conditions used: assay detail: Kinobeads competition in P. falciparum blood-stage lysate
Assay readout: IC50

Prompt: For O=c1[nH]c2ccc(Cl)cc2c(NC2CN3CCC2CC3)c1-c1nc2ccccc2[nH]1 (stereo unspecified) , what is its reported IC50?
Response: > 20 µM
